Target: UniProt:P18031
Sequence (P18031 1-321): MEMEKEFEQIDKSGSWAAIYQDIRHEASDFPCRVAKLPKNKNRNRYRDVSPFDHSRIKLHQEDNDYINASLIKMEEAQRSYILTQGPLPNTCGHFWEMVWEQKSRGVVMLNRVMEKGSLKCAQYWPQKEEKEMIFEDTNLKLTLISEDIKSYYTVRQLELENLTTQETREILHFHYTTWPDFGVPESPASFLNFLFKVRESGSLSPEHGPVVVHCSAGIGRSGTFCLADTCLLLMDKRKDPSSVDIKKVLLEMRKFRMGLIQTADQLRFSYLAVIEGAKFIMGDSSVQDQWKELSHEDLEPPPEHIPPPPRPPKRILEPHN
Assay: PTP1B-catalyzed hydrolysis of p-nitrophenyl phosphate (pNPP), in vitro kinetic assay
Type: biochemical
Conditions: PTP1B1-321; fit of mixed model; read-out: Ki,u, mixed model
Procedure: PTP1B was purified as described previously. Briefly, the E. coli BL21 (DE3) cells were transformed with a pET21b vector containing the catalytic domain of PTP1B (residues 1-321) modified with a 6× polyhistidine tag on its C-terminus. […] Kinetic data was analyzed by using a custom Matlab script supplemented with a user-generated standard curve (e.g., a plot of absorbance at 405 nm vs. pNP concentration in μM, FIG. 15). […]
value kind: pKi
Give bare numbers, as −log10 of the molar value.

Enquiry: Endpoint output: pKi of CC1=C[C@H]2[C@@H](CC1)[C@](C)(O)CCCC2(C)C . Value?
Return: 3.52

* * *

Target: UniProt P18031
Assay: PTP1B-catalyzed hydrolysis of p-nitrophenyl phosphate (pNPP), in vitro kinetic assay
Format: biochemical
Settings: PTP1B1-321; fit of competitive model; read-out: Ki, competitive model
value kind: pKi
Numbers only, as −log10 of the molar value.

Enquiry: For the record CC1=C[C@H]2[C@@H](CC1)[C@](C)(O)CCCC2(C)C , what value of pKi is listed for UniProt P18031?
Return: 4.61

* * *

Molecular target: PTP1B (Homo sapiens, UniProt P18031)
Assay: PTP1B-catalyzed hydrolysis of p-nitrophenyl phosphate (pNPP), in vitro kinetic assay
Format: biochemical
Conditions: [PTP1B]=50 nM; [pNPP]=5 mM; linear fit, rough estimate; read-out: IC50 for PTP1B
pIC50: −log10 of the molar value.
value kind: pIC50

Enquiry: Requested field: pIC50. Item: CC(C)=CCC/C(C)=C/CC/C(C)=C/CO[P@@](=O)(O)OP(=O)(O)O (stereo in doubt) [FPP, farnesyl pyrophosphate]
Return: ~3.70
